# ASSAY NOTES: Cytotoxic activity, CellTiter Glo luminescent cell viability assay, 72 h
# Type: cell-based
# REPORTED CONDITIONS: human, MDA-MB-231 breast carcinoma cells, MDA-MB-231, pure compounds at 1 µM, read-out: Percentage of Cell Viability
# Description: Biological activity assays were conducted on microbial extract from Micromonospora sp. SH-82 and on isolated compounds 1, 2, 3, and 5. The tests focused on antiplasmodial and cytotoxic activity. Detailed protocols for these activity tests can be found in reference. […] Cell viability was determined via a luminescent assay according to the manufacturer’s instructions (Promega, Madison, WI, USA). […] The percent viability index was evaluated by two independent assays in triplicate.
ASSAY READOUT: viability at 72 h, 1 µM (%)
Give a bare numeral; the unit % is implied.

# input Consider the compound shown here: CCC1OC(=O)C(C)C(O)C(C)C(O)C2(C)CC(C)C(OC)(O2)C(C)=CC1C (stereo not shown) [Compound 5] What is its recorded viability at 72 h, 1 µM?
# output 100

# input Consider the compound shown here: CC[C@H]1OC(=O)[C@H](C)[C@@H](O)[C@H](C)[C@@H](O)[C@@H](C)C[C@@H](C)C(=O)[C@H](C)[C@@H](O)[C@H]1C [Compound 2, 6-desoxyerythronolide B] What is its recorded viability at 72 h, 1 µM?
# output 105

# input Consider the compound shown here: CCC1OC(=O)C(C)C(OC2CC(C)(OC(C)=O)C(OC(C)=O)C(C)O2)C(C)C(OC2OC(C)CC(N(C)C)C2O)C(C)(OC2CC(N(C)C)C(O)C(C)O2)CC(C)C(=O)C(C)C(O)C1(C)O (stereo not shown) [Compound 3, megalomicin C1] What is its recorded viability at 72 h, 1 µM?
# output 102

# input Consider the compound shown here: CC[C@H]1OC(=O)[C@H](C)[C@@H](O)[C@H](C)[C@@H](O)[C@](C)(O)C[C@@H](C)C(=O)[C@H](C)[C@@H](O)[C@H]1C [Compound 1, Erythronolide B] What is its recorded viability at 72 h, 1 µM?
# output 107
